- Study Target: T1, human GRF receptor (human, UniProt Q02643 23-423)
- T1 sequence (looked up): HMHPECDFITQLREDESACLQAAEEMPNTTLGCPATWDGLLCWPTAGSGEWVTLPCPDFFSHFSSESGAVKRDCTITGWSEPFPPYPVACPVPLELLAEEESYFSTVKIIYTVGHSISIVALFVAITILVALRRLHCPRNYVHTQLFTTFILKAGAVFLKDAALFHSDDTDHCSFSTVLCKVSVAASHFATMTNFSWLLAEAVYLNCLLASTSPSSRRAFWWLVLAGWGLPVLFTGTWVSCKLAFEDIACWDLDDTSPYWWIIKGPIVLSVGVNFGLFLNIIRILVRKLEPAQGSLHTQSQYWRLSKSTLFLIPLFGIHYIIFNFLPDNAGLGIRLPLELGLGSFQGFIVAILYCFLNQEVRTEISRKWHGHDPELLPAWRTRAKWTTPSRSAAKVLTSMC
- Experiment Notes: cell-based or functional assay
Where no end group is shown, it is not given here.
For each record, write down the corresponding EC50 as assessed by alkaline phosphatase (AP) induction.
Report the figure in nM without appending any unit label.

response.value for YLDAIFTDSYRKVLAQLKARQDILARAARAAR-NH2 [YLDAIFTDSYRKVLAQLKARQDILARAARAAR-NH2 (SEQ ID NO: 35)] (field: EC50 as assessed by alkaline phosphatase (AP) induction) = 2.52

response.value for YGDAIFTDSYRKVLAQLKARQDILARAARAAR-NH2 [YGDAIFTDSYRKVLAQLKARQDILARAARAAR-NH2 (SEQ ID NO: 34)] (field: EC50 as assessed by alkaline phosphatase (AP) induction) = 0.2

response.value for Ac-YADAIFTDSYRKVLAQLSARKLLQDILSR-NH2 [Ac-YADAIFTDSYRKVLAQLSARKLLQDILSR-NH2 (SEQ ID NO: 43)] (field: EC50 as assessed by alkaline phosphatase (AP) induction) = 0.25

response.value for YSDAIFTDSYRKVLAQLKARQDILARAARAAR-NH2 [YSDAIFTDSYRKVLAQLKARQDILARAARAAR-NH2 (SEQ ID NO: 33)] (field: EC50 as assessed by alkaline phosphatase (AP) induction) = 0.25
